Give measured OD450 for each item. Keep answers brief.
tested_on: T1, monkey CD22 protein (ACROBiosystems, catalog number SI2-R52Ha) (monkey, UniProt F6W485 20-688)
T1 construct: commercial protein; also called monkey CD22-ECD; monkey CD22-ECD-His
T1 sequence: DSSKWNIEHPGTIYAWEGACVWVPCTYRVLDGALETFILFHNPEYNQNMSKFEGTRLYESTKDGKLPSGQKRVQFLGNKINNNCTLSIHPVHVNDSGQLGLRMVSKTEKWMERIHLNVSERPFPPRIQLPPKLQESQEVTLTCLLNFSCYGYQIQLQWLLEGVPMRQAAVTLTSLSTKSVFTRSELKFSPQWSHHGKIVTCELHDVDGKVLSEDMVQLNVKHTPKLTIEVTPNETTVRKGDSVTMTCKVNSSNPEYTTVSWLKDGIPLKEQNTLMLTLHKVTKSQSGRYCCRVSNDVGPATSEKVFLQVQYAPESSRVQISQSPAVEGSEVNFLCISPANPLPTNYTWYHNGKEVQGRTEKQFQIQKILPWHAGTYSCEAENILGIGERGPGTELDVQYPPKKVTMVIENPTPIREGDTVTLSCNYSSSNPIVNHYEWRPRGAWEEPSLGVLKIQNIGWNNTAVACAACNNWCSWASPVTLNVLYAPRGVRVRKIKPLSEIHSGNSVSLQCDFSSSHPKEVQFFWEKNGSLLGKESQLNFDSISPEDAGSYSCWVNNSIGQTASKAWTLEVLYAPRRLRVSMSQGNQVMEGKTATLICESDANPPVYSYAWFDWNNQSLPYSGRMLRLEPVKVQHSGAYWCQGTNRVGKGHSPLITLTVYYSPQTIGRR
assay_comment: ELISA, coated monkey CD22 protein, antibody 0.001 nM
Protocol: In order to detect the binding activity of CD22 human-murine chimeric antibodies to CD22 protein, the purified human CD22-ECD-His protein obtained in Example 2 was diluted with PBS to a final concentration of 2 μg/mL, and then added to 96-well ELISA plate at 100 μl/well. The plate was sealed with plastic film and incubated overnight at 4° C., the plate was washed 2 times with PBS the next day, and then a blocking solution [PBS+2% (w/w) BSA] was added for blocking at room temperature for 2 hours. […]
Put your answer as a value accompanied by its unit after it.

**Query** Recorded OD450 of F1.280.1 (antibody, human IgG1, kappa, V domains shown, human-murine chimeric IgG1 kappa) VH: QIQLVQSGPELKKPGETVKISCKASGYTFTTYGMSWVKQTPGKGLTWMGWINTDSGVPTYADDFKRRFAFSLEASATTAYLQINNLKNEDTATYFCARGGPDYWGQGTTLTVSS VL: DILLTQSPATLSVTPGETVSLSCRASQSIYKNLHWYHQKSHRSPRLLIKYASDSISGIPSRFTGSGSGTNFTLSINSVKPEDEGIYYCLQGYIVPLTFGAGTKLELKR , please.
**Result** 0.06 OD450

**Query** Record request: OD450 value, item F2.70.2 (antibody, human IgG1, lambda, V domains shown, human-murine chimeric IgG1 lambda) VH: EVQLVESGGGLVKPGGSLKLSCAASGFTFSDYGMNWFRQAPEKGLEWVAYISRGSHTIYYADTVKGRFTISRDNAKNTLFLQMTSLRSNDTAMYYCVRMAGYYAMDYWGQGTSVTVSS VL: QLVLTQSSSASFSLGASAKLTCTLSSQHSSYIIEWYQQQPLKPPKYVMELKKDGSHSTGDGIPDRFSGSSSGADRYLSISNIQPEDEAIYICGVGDTIKEQFVYVFGGGTKVTVLG
**Result** 0.07 OD450
